Target: other members of the PDE family (Homo sapiens)
Sequence (Q14432 whole entry): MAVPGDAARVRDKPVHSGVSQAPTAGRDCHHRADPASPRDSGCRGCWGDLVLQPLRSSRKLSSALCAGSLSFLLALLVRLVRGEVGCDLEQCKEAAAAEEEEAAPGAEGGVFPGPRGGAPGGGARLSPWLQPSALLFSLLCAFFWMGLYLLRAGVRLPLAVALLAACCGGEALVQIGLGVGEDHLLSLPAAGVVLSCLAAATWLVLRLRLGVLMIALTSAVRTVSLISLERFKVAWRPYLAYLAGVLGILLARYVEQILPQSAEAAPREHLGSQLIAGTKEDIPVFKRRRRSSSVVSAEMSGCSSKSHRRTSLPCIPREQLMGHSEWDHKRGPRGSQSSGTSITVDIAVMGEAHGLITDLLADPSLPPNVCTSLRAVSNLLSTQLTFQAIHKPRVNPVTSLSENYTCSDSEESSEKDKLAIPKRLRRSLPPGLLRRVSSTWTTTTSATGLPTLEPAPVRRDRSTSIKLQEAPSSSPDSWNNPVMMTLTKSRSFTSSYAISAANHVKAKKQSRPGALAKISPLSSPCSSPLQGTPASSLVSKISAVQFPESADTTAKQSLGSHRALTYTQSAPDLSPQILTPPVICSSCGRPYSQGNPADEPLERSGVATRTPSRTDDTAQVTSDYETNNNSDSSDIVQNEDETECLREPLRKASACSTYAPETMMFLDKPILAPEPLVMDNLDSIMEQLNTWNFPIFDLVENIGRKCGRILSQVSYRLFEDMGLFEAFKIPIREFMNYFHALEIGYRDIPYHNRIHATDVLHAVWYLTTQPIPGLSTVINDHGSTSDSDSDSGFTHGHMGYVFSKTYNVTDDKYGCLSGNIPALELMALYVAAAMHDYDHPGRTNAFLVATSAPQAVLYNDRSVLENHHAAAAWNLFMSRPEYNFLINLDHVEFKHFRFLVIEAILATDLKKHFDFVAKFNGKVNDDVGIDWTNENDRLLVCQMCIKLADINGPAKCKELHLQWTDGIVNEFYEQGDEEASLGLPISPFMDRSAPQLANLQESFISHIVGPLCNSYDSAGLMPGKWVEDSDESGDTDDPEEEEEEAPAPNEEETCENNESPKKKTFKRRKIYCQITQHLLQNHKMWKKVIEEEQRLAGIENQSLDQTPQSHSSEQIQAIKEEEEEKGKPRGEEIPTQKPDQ
Assay: In vitro PDE selectivity assay (SPA), other members of the PDE family (protocols in Table A)
Type: biochemical
Details: hPDE3A; read-out: PDE 3A (expressed as pIC50) (converted)
A collection of compounds and their measured IC50

{"Compound": "Cc1nc2c(N3CCOCC3)cc(Cl)nn2c1-c1cnn(CC(F)(F)F)c1", "Assayed system": "other members of the PDE family (Homo sapiens)", "IC50": "> 10 µM"}
{"Compound": "COCCn1cc(-c2c(C)nc3c(N4CCOCC4)cc(C4CC4)nn23)cn1", "Assayed system": "other members of the PDE family (Homo sapiens)", "IC50": "> 10 µM"}
{"Compound": "CC(C)Cn1cc(-c2c(C3CC3)nc3c(-c4ccncc4)ccnn23)cn1", "Assayed system": "other members of the PDE family (Homo sapiens)", "IC50": "3.16 µM"}
{"Compound": "CCc1ccc(-c2c(C)nc3c(N4CCOCC4)ccnn23)cn1", "Assayed system": "other members of the PDE family (Homo sapiens)", "IC50": "30.2 µM"}
{"Compound": "COCCOc1ccc(-c2c(C)nc3c(-c4ccncc4)ccnn23)cn1", "Assayed system": "other members of the PDE family (Homo sapiens)", "IC50": "> 50.1 µM"}
{"Compound": "Cc1nc2c(N3CCOCC3)ccnn2c1-c1ccc(C2CC2)nc1", "Assayed system": "other members of the PDE family (Homo sapiens)", "IC50": "> 10 µM"}
{"Compound": "CO[C@@H](C)Cn1cc(-c2c(C)nc3c(N4CCOCC4)ccnn23)cn1", "Assayed system": "other members of the PDE family (Homo sapiens)", "IC50": "> 10 µM"}
{"Compound": "COCCc1ccc(-c2c(C3CC3)nc3c(-c4ccncc4)ccnn23)cn1", "Assayed system": "other members of the PDE family (Homo sapiens)", "IC50": "> 10 µM"}
{"Compound": "Cc1nc2c(-c3ccncc3)ccnn2c1-c1cnn(CC(F)(F)F)c1", "Assayed system": "other members of the PDE family (Homo sapiens)", "IC50": "7.41 µM"}
{"Compound": "COC(C)(C)COc1ccc(-c2c(C)nc3c(N4CCOCC4)ccnn23)cn1", "Assayed system": "other members of the PDE family (Homo sapiens)", "IC50": "> 10 µM"}
{"Compound": "Cc1nc2c(N3CCOCC3)ccnn2c1-c1ccc(C(C)C)nc1", "Assayed system": "other members of the PDE family (Homo sapiens)", "IC50": "> 10 µM"}
{"Compound": "Cc1nc2c(N3CCOCC3)ccnn2c1-c1cnn(CC(C)C)c1", "Assayed system": "other members of the PDE family (Homo sapiens)", "IC50": "7.41 µM"}
{"Compound": "COCCn1cc(-c2c(C)nc3c(-c4ccncc4)cc(C)nn23)cn1", "Assayed system": "other members of the PDE family (Homo sapiens)", "IC50": "> 10 µM"}
{"Compound": "COCCc1ccc(-c2c(C3CC3)nc3c(N4CCOCC4)ccnn23)cn1", "Assayed system": "other members of the PDE family (Homo sapiens)", "IC50": "> 50.1 µM"}
{"Compound": "Cc1nc2c(-c3ccncc3)ccnn2c1-c1cnn(CC(C)C)c1", "Assayed system": "other members of the PDE family (Homo sapiens)", "IC50": "6.92 µM"}
{"Compound": "Cc1nc2c(N3CCOCC3)ccnn2c1-c1cnn(C2CCOCC2)c1", "Assayed system": "other members of the PDE family (Homo sapiens)", "IC50": "> 10 µM"}
{"Compound": "COC(C)(C)Cc1ccc(-c2c(C)nc3c(N4CCOCC4)ccnn23)cn1", "Assayed system": "other members of the PDE family (Homo sapiens)", "IC50": "> 10 µM"}
{"Compound": "COCCOc1ccc(-c2c(C)nc3c(N4CCOCC4)ccnn23)cn1", "Assayed system": "other members of the PDE family (Homo sapiens)", "IC50": "> 10 µM"}
{"Compound": "COCCn1cc(-c2c(C)nc3c(N4CCOCC4)cc(C)nn23)cn1", "Assayed system": "other members of the PDE family (Homo sapiens)", "IC50": "> 10 µM"}
{"Compound": "CCc1nc2c(N3CCOCC3)ccnn2c1-c1cnn(CCOC)c1", "Assayed system": "other members of the PDE family (Homo sapiens)", "IC50": "> 10 µM"}
{"Compound": "COCCn1cc(-c2c(C3CC3)nc3c(-c4ccncc4)ccnn23)cn1", "Assayed system": "other members of the PDE family (Homo sapiens)", "IC50": "5.13 µM"}
{"Compound": "Cc1nc2c(N3CCOCC3)ccnn2c1-c1ccnc(N2CCOCC2)c1", "Assayed system": "other members of the PDE family (Homo sapiens)", "IC50": "> 10 µM"}
{"Compound": "c1cc(-c2ccnn3c(-c4ccc(N5CCOCC5)nc4)cnc23)ccn1", "Assayed system": "other members of the PDE family (Homo sapiens)", "IC50": "> 10 µM"}
{"Compound": "COCCc1ccc(-c2c(C)nc3c(N4CCOCC4)ccnn23)cn1", "Assayed system": "other members of the PDE family (Homo sapiens)", "IC50": "97.7 µM"}
{"Compound": "Cc1nc2c(N3CCOCC3)ccnn2c1-c1cnn(CC2CC2(F)F)c1 (centres unmarked)", "Assayed system": "other members of the PDE family (Homo sapiens)", "IC50": "> 10 µM"}
{"Compound": "Cc1nc2c(N3CCOCC3)ccnn2c1-c1ccc(N2CCOCC2)nc1", "Assayed system": "other members of the PDE family (Homo sapiens)", "IC50": "> 10 µM"}
{"Compound": "COC(C)(C)Cn1cc(-c2c(C)nc3c(N4CCOCC4)ccnn23)cn1", "Assayed system": "other members of the PDE family (Homo sapiens)", "IC50": "11 µM"}
{"Compound": "Cc1nc2c(N3CCOCC3)ccnn2c1-c1ccc(N2CCNCC2)nc1", "Assayed system": "other members of the PDE family (Homo sapiens)", "IC50": "> 10 µM"}
{"Compound": "COC(C)(C)CCc1ccc(-c2c(C)nc3c(N4CCOCC4)ccnn23)cn1", "Assayed system": "other members of the PDE family (Homo sapiens)", "IC50": "> 10 µM"}
{"Compound": "COC(C)(C)Cn1cc(-c2c(C3CC3)nc3c(-c4ccncc4)ccnn23)cn1", "Assayed system": "other members of the PDE family (Homo sapiens)", "IC50": "1.45 µM"}
{"Compound": "COCCn1cc(-c2c(C)nc3c(N4CCOCC4)ccnn23)cn1", "Assayed system": "other members of the PDE family (Homo sapiens)", "IC50": "> 10 µM"}
{"Compound": "COCCn1cc(-c2c(C)nc3c(-c4ccncc4)cc(Cl)nn23)cn1", "Assayed system": "other members of the PDE family (Homo sapiens)", "IC50": "> 10 µM"}
